- target or test system: CDK6/Cyclin D3 (Homo sapiens, UniProt Q00534)
- Sequence (Q00534 whole entry): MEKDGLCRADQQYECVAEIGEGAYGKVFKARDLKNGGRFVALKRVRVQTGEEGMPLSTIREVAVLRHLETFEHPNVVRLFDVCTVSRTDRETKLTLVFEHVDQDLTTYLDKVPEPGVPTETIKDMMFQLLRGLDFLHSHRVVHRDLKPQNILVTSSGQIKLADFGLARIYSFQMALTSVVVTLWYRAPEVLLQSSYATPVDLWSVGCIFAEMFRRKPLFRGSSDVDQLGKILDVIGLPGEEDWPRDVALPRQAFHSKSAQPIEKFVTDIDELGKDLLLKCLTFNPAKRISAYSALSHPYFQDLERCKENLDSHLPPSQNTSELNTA
- Sequence (P30281 whole entry partner): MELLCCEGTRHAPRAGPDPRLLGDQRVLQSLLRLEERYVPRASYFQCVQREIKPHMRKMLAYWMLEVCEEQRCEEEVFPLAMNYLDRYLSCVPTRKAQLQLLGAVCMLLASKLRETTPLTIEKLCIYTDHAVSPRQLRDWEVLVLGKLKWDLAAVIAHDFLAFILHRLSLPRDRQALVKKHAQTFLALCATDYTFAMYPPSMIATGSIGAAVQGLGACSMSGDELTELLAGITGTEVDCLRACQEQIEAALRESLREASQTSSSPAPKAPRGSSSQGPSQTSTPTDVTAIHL
- procedure summary: CDK6/Cyclin D3 kinase assay (Nanosyn, Caliper microfluidic)
- run parameters: 12-point dose-response, ATP at Km (300 μM), 3 hr
pIC50: −log10 of the molar value.
Assign pIC50 to each entry below.

NS(=O)(=O)Cc1cccc(Nc2ncc3cc4n(c3n2)C2(CCCCC2)CNC4=O)c1 < 4.00
O=C1NCC2(CCCCC2)n2c1cc1cnc(NC(=O)[C@H]3CNCCO3)nc12 < 4.00

# ---- query compound ----
-- ask Give recorded pIC50. "O=C1NCC2(CCCCC2)n2c1cc1cnc(NC(=O)[C@H]3CNCC[C@H]3c3ccccc3)nc12"
-- reply < 4.00

* * *

- target or test system: CDK7/Cyclin H (Homo sapiens, UniProt P50613)
- Sequence (P50613 whole entry): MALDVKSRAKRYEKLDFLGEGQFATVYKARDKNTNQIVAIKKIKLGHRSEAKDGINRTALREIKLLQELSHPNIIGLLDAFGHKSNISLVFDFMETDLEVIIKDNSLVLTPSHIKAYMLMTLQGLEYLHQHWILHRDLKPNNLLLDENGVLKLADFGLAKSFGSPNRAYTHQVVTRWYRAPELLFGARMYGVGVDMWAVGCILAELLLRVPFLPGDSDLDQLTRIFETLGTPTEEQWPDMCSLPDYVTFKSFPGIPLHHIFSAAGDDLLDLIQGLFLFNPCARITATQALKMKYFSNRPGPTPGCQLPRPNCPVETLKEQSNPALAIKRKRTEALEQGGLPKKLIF
- Sequence (P51946 whole entry partner): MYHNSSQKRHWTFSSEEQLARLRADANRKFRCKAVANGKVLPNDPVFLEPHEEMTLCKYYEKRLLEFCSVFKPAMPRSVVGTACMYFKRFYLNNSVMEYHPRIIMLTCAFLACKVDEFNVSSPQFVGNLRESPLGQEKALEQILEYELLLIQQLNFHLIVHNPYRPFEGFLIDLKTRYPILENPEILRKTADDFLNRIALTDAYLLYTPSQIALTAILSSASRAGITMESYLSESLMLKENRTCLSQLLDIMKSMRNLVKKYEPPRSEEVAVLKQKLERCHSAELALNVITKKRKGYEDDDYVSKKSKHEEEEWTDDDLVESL
- Sequence (P51948 whole entry partner): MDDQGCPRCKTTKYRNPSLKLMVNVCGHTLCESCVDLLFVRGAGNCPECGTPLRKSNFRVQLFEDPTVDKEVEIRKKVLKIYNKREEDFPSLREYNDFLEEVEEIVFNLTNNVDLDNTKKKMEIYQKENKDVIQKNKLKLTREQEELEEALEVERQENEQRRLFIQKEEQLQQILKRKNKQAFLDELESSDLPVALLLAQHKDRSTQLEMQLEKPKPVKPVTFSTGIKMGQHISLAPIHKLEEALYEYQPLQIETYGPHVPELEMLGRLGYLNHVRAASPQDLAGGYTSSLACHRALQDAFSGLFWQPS
- procedure summary: CDK7/Cyclin H kinase assay (Nanosyn, Caliper microfluidic)
- Assay type: biochemical
- run parameters: 12-point dose-response, ATP at Km (50 μM), 17 hr
pIC50: −log10 of the molar value.
Mark no for pIC50 values under 6, and yes for everything at or above.

Example results:
O=C1CC[C@H](Nc2ncc3cc4n(c3n2)C2(CCCCC2)CNC4=O)CN1 yes
C[C@H]1CC[C@@H](Nc2ncc3cc4n(c3n2)C2(CCCCC2)CN=C4)CC1 no
CN1CCN([C@H]2CC[C@@H](Nc3ncc4cc5n(c4n3)C3(CCCCC3)CNC5=S)CC2)CC1 yes
CN(C)[C@H]1CC[C@H](Nc2ncc3cc4n(c3n2)C2(CCCCC2)CNC4=O)CC1 yes
O=C1NCC2(CCCCC2)n2c1cc1cnc(NC(=O)[C@@H]3CCCNC3)nc12 no
C[C@H]1NCCC[C@H]1C(=O)Nc1ncc2cc3n(c2n1)C1(CCCCC1)CNC3=O no
O=C1NCC2(CCCCC2)n2c1cc1cnc(N[C@@H]3CCCNC3)nc12 yes
S=C1NCC2(CCCCC2)n2c1cc1cnc(N[C@@H]3CCCNC3)nc12 yes
O=C1NCC2(CCCCC2)n2c1cc1cnc(NC(=O)[C@H]3CNCCO3)nc12 no
O=C1NCC2(CCCCC2)n2c1cc1cnc(N[C@@H]3C[C@@H](O)CNC3=O)nc12 no

-- ask Check the entry "O=C1NCC2(CCCCC2)n2c1cc1cnc(N[C@H]3CC[C@H](N4CCOCC4)CC3)nc12" : does pIC50 equal or exceed 6?
-- reply yes

-- ask Check the entry "C1=NCC2(CCCCC2)n2c1cc1cnc(N[C@@H]3CCCNC3)nc12" : does pIC50 equal or exceed 6?
-- reply yes

-- ask Check the entry "O=C1NCC2(CCCCC2)n2c1cc1cnc(N[C@H]3CC[C@H](NC4CCOCC4)CC3)nc12" : does pIC50 equal or exceed 6?
-- reply yes

-- ask Check the entry "CS(=O)(=O)N[C@H]1CC[C@H](Nc2ncc3cc4n(c3n2)C2(CCCCC2)CNC4=O)CC1" : does pIC50 equal or exceed 6?
-- reply no

-- ask Check the entry "N[C@H]1CC[C@@H](Nc2ncc3cc4n(c3n2)C2(CCCCC2)CN=C4)CC1" : does pIC50 equal or exceed 6?
-- reply yes

-- ask Check the entry "O=C1NCC2(CCCCC2)n2c1cc1cnc(NC(=O)[C@@H]3CCNC3)nc12" : does pIC50 equal or exceed 6?
-- reply no

-- ask Check the entry "O=C1NCC2(CCCCC2)n2c1cc1cnc(NC(=O)[C@H]3CNCCN3)nc12" : does pIC50 equal or exceed 6?
-- reply no

-- ask Check the entry "C[C@H]1CC[C@H](Nc2ncc3cc4n(c3n2)C2(CCCCC2)CN=C4)CC1" : does pIC50 equal or exceed 6?
-- reply no

-- ask Check the entry "O=C1NCC2(CCCCC2)n2c1cc1cnc(N[C@H]3CCCNC3)nc12" : does pIC50 equal or exceed 6?
-- reply yes

-- ask Check the entry "O=C1NCC2(CCCCC2)n2c1cc1cnc(NC(=O)[C@H]3CNCC[C@H]3c3ccccc3)nc12" : does pIC50 equal or exceed 6?
-- reply no

-- ask Check the entry "C1=NCC2(CCCCC2)n2c1cc1cnc(NC3CCOCC3)nc12" : does pIC50 equal or exceed 6?
-- reply yes

-- ask Check the entry "N[C@H]1CC[C@H](Nc2ncc3cc4n(c3n2)C2(CCCCC2)CNC4=O)CC1" : does pIC50 equal or exceed 6?
-- reply yes

-- ask Check the entry "O=C1NCC2(CCCCC2)n2c1cc1cnc(N[C@@H]3CCCN[C@@H]3c3ccccc3)nc12" : does pIC50 equal or exceed 6?
-- reply no

-- ask Check the entry "O=C1NCC2(CCCCC2)n2c1cc1cnc(N[C@H]3Cc4ccccc4NC3=O)nc12" : does pIC50 equal or exceed 6?
-- reply no

* * *

- target or test system: CDK1/Cyclin B1 (Homo sapiens, UniProt P06493)
- Sequence (P06493 whole entry): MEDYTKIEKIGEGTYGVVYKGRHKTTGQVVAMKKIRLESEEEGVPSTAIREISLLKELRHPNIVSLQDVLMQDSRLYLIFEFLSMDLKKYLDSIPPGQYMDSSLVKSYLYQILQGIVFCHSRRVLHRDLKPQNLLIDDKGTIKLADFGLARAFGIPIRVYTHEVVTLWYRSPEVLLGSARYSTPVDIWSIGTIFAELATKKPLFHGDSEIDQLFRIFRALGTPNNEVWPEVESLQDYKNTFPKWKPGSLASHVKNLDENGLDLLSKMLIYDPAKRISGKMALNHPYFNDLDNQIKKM
- Sequence (P14635 whole entry partner): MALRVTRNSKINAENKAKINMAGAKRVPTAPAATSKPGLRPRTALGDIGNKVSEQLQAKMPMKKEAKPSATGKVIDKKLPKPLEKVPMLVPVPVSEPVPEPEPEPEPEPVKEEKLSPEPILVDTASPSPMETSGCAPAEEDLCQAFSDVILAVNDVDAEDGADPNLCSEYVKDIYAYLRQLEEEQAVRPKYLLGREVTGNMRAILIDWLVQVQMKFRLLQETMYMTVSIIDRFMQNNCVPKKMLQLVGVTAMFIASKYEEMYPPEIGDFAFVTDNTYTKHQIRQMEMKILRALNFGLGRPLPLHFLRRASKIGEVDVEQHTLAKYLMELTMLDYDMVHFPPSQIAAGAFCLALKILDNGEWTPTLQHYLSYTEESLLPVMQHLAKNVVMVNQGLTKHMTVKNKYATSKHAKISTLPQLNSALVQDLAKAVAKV
- procedure summary: CDK1/Cyclin B1 kinase assay (Nanosyn, Caliper microfluidic)
- run parameters: 12-point dose-response, ATP at Km (40 μM), 3 hr
Assign log10 of IC50 to each entry below.
// units: µM (pre-log); metric: IC50; scale: log10

Please report log10 of IC50 for every entry that follows.
1. O=C1NCC2(CCCCC2)n2c1cc1cnc(N[C@@H]3CCCNC3)nc12
2. O=C(C[C@H]1CCCN1)Nc1ncc2cc3n(c2n1)C1(CCCCC1)CNC3=O
3. O=C1NCC2(CCCCC2)n2c1cc1cnc(N[C@@H]3CCCN[C@@H]3c3ccccc3)nc12
4. O=C1NCC2(CCCCC2)n2c1cc1cnc(NC(=O)[C@@H]3CCCNC3)nc12
5. O=C1NCC2(CCCCC2)n2c1cc1cnc(N[C@H]3CCCNC3=O)nc12

-- reply
[-0.29, 1.43, 1.91, 0.64, 1.59]

* * *

- target or test system: CDK5/p25 (Homo sapiens)
- Sequence (Q00535 whole entry): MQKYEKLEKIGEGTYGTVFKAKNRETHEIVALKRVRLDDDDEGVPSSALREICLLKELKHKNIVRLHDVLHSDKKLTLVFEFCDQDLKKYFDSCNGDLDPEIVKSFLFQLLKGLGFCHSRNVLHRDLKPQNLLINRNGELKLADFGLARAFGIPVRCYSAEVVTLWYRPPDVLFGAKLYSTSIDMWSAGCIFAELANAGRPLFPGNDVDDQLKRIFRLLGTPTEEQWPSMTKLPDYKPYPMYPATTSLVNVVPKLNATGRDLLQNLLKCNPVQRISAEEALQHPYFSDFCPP
- Sequence (Q15078 99-307 partner limits assumed): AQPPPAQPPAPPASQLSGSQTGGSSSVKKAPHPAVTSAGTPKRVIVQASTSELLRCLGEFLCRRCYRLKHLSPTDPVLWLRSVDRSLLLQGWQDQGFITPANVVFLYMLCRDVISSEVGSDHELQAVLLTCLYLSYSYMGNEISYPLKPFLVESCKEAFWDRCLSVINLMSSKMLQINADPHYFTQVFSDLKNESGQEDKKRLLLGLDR
- procedure summary: CDK5/p25 kinase assay (Nanosyn, Caliper microfluidic)
- run parameters: 12-point dose-response, ATP at Km (20 μM), 3 hr
Assign IC50 to each entry below.
Answers are plain numbers, in µM.

Recorded IC50, per entry:
compound	unit label	IC50
C[C@H]1NCCC[C@H]1C(=O)Nc1ncc2cc3n(c2n1)C1(CCCCC1)CNC3=O [Compound 30]	µM	8.4
O=C1NCC2(CCCCC2)n2c1cc1cnc(N[C@H]3Cc4ccccc4NC3=O)nc12 [Compound 27]	µM	9.6

# ---- query compound ----
-- ask Give recorded IC50. O=C1NCC2(CCCCC2)n2c1cc1cnc(N[C@H]3CCCN[C@@H]3c3ccccc3)nc12 [Compound 10]
-- reply 11

* * *

Assign pIC50 to each entry below.
- target or test system: CDK5/p25 (Homo sapiens)
- procedure summary: CDK5/p25 kinase assay (Nanosyn, Caliper microfluidic)
- run parameters: 12-point dose-response, ATP at Km (20 μM), 3 hr
One number for each entry, as −log10 of the molar value.

Recorded pIC50, per entry:
compound	target or test system	number
N[C@H]1CC[C@@H](Nc2ncc3cc4n(c3n2)C2(CCCCC2)CN=C4)CC1 [Compound 55]	CDK5/p25 (Homo sapiens)	5.70
S=C1NCC2(CCCCC2)n2c1cc1cnc(N[C@@H]3CCCNC3)nc12 [Compound 41]	CDK5/p25 (Homo sapiens)	6.01

# ---- query compound ----
-- ask Give recorded pIC50. O=C1NCC2(CCCCC2)n2c1cc1cnc(N[C@H]3CCCNC3)nc12 [Compound 47]
-- reply 6.64

* * *

- target or test system: CDK1/Cyclin B1 (Homo sapiens)
- procedure summary: CDK1/Cyclin B1 kinase assay (Nanosyn, Caliper microfluidic)
- run parameters: 12-point dose-response, ATP at Km (40 μM), 3 hr
test readout: pIC50
Numbers only, as −log10 of the molar value.

Recorded pIC50, per entry:
molecule	pIC50
O=C1NCC2(CCCCC2)n2c1cc1cnc(N[C@H]3CC[C@H](NC4CCOCC4)CC3)nc12 [Compound 16]	7.04
C1=NCC2(CCCCC2)n2c1cc1cnc(NC3CCOCC3)nc12 [Compound 52]	7.11
O=C1CC[C@H](Nc2ncc3cc4n(c3n2)C2(CCCCC2)CNC4=O)CN1 [Compound 24]	6.25
NS(=O)(=O)c1cccc(Nc2ncc3cc4n(c3n2)C2(CCCCC2)CNC4=O)c1 [Compound 42]	8.06
O=C1NCC2(CCCCC2)n2c1cc1cnc(N[C@H]3CC[C@H](N4CCCCC4)CC3)nc12 [Compound 46]	6.29

Please report pIC50 for every entry that follows.
1. C[C@H]1CC[C@@H](Nc2ncc3cc4n(c3n2)C2(CCCCC2)CN=C4)CC1 [Compound 53]
2. C1=NCC2(CCCCC2)n2c1cc1cnc(N[C@H]3CCCNC3)nc12 [Compound 50]
3. S=C1NCC2(CCCCC2)n2c1cc1cnc(N[C@H]3CCCNC3)nc12 [Compound 40]
4. CN1CCN([C@H]2CC[C@@H](Nc3ncc4cc5n(c4n3)C3(CCCCC3)CNC5=S)CC2)CC1 [Compound 39]

-- reply
5.82
6.55
7.21
5.92
